B1: library; a variant is named by its letters at N, in order (parent)
chain: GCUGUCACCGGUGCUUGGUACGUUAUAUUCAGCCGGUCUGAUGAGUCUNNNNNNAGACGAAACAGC

# Variants of: B1
# MEASUREMENT_PROTOCOL: normalized RNA/DNA level without ligand (relative to sTRSVctl = 100) (log10 (% of sTRSVctl)); HEK293T overexpressing SLC46A1; higher = less ribozyme self-cleavage, higher mRNA level
# CONDITION_SET: without (6R,S)-folinic acid; ligand present: no
Provide the recorded normalized RNA/DNA level without ligand (log10) for the entries that follow.
Answers are plain numbers.

CGCGCG	1.99
AGGUGG	1.98
CGUUAC	2.04
UCCCAC	2.03
UGCCUU	2.01
UAAAGC	1.97

Fill in: normalized RNA/DNA level without ligand (log10) of UGUACA is ___
1.96
